assay_system: T1, Hu HER3: CD33-[Human HER3, residues 20-640]-TAG (human, UniProt P21860 20-640)
T1 construct: also called hu HER3-Tag; HER3-Tag; not shown: C-terminal TAG (e.g. FLAG TAG)
assay_method_text: solution equilibrium titration (SET), IgG, ECL read-out
pKd: −log10 of the molar value.
# Lookup of reported pKd keyed by entry
recorded_endpoint: pKd

[
  {
    "binder": "MOR13657 (antibody, human IgG1, lambda, V domains shown, Tested as IgG) VH: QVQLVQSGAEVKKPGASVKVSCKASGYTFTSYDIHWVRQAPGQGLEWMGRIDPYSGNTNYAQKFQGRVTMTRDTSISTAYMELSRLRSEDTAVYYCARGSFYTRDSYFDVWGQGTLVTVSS VL: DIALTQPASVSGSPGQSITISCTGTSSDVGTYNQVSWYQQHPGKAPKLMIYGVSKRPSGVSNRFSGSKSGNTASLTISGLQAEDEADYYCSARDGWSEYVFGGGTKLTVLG",
    "recorded_endpoint": "pKd",
    "meas_value": 10.06
  },
  {
    "binder": "MOR13666 (antibody, human IgG1, lambda, V domains shown, Tested as IgG) VH: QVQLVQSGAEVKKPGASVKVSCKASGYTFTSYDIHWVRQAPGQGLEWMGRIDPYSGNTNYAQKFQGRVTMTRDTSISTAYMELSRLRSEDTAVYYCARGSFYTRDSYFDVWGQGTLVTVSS VL: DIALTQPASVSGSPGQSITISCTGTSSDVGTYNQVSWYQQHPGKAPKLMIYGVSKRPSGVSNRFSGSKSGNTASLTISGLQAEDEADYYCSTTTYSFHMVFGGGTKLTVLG",
    "recorded_endpoint": "pKd",
    "meas_value": 9.82
  },
  {
    "binder": "MOR13654 (antibody, human IgG1, lambda, V domains shown, Tested as IgG) VH: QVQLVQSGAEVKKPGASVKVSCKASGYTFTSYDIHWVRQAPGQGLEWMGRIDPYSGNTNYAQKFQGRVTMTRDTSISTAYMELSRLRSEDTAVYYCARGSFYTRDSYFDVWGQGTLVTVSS VL: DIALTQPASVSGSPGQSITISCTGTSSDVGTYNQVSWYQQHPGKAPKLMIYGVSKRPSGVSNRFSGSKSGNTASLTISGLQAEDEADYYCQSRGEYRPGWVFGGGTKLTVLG",
    "recorded_endpoint": "pKd",
    "meas_value": 9.96
  },
  {
    "binder": "MOR12604 (antibody, V domains shown, Tested as IgG) VH: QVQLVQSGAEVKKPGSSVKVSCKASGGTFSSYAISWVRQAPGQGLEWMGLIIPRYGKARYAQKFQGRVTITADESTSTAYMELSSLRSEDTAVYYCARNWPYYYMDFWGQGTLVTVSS VL: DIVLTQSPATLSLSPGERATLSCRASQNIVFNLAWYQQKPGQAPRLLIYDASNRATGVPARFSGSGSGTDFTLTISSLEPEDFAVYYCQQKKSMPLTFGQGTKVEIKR",
    "recorded_endpoint": "pKd",
    "meas_value": 8.96
  }
]
